Test system: Mycobacterium tuberculosis
Assay remarks: Antimycobacterial activity against Mycobacterium tuberculosis MTCC 300 assessed as growth inhibition at 1 mg/ml after 24 hr by agar well diffusion method
Format: functional
Protocol conditions: MTCC 300, 24 h, read-out: DIZ
Measured property: zone of inhibition at 1000 µg/mL (mm)
Just the number please, in mm, no unit attached.

>>> reported_measurement("COc1ccc(-c2nn(-c3ccccc3)cc2C2C3=C(NC(C)(c4cc(Cl)cc(I)c4O)NC3=O)Oc3c2c(C)nn3-c2ccccc2)cc1 (centres undefined)")
3.6
>>> reported_measurement("Cc1nn(-c2ccccc2)c2c1C(c1cn(-c3ccccc3)nc1-c1ccc(F)cc1)C1=C(NC(C)(c3ccc(O)c(Cl)c3O)NC1=O)O2 (centres undefined)")
2
>>> reported_measurement("Cc1nn(-c2ccccc2)c2c1C(c1cn(-c3ccccc3)nc1-c1ccc(Cl)cc1)C1=C(NC(C)(c3cc(Cl)ccc3O)NC1=O)O2 (centres undefined)")
1.9

Entry Cc1nn(-c2ccccc2)c2c1C(c1cn(-c3ccccc3)nc1-c1ccc(Cl)cc1)C1=C(NC(C)(c3ccc(O)c(Cl)c3O)NC1=O)O2 (centres undefined) — recorded zone of inhibition at 1000 µg/mL = 1.5

* * *

System: Mycolicibacterium smegmatis
Assay remarks: Antimycobacterial activity against Mycobacterium smegmatis NCIM 5138 assessed as growth inhibition at 0.5 mg/ml after 24 hr by agar well diffusion method
Assay type: functional
Protocol conditions: NCIM 5138, 24 h, read-out: DIZ
Measured property: zone of inhibition at 500 µg/mL (mm)
Just the number please, in mm, no unit attached.

>>> reported_measurement("COc1ccc(-c2nn(-c3ccccc3)cc2C2C3=C(NC(C)(c4cc(Cl)cc(I)c4O)NC3=O)Oc3c2c(C)nn3-c2ccccc2)cc1 (stereo not drawn)")
10.8
>>> reported_measurement("Cc1nn(-c2ccccc2)c2c1C(c1cn(-c3ccccc3)nc1-c1ccc(F)cc1)C1=C(NC(C)(c3ccc(O)c(Cl)c3O)NC1=O)O2 (stereo not drawn)")
7.6

Entry Cc1nn(-c2ccccc2)c2c1C(c1cn(-c3ccccc3)nc1-c1ccc(F)cc1)C1=C(NC(C)(c3cc(Cl)cc(I)c3O)NC1=O)O2 (stereo not drawn) — recorded zone of inhibition at 500 µg/mL = 9

* * *

Tested on: Mycolicibacterium smegmatis
Assay remarks: Antimycobacterial activity against Mycobacterium smegmatis NCIM 5138 assessed as growth inhibition at 0.1 mg/ml after 24 hr by agar well diffusion method
Type: functional
Protocol conditions: NCIM 5138, 24 h, read-out: DIZ
Entries and their measured zone of inhibition at 100 µg/mL follow.
Could you write the number and then its unit?

>>> reported_measurement("COc1ccc(-c2nn(-c3ccccc3)cc2C2C3=C(NC(C)(c4cc(Cl)cc(I)c4O)NC3=O)Oc3c2c(C)nn3-c2ccccc2)cc1 (centres undefined)")
"8 mm"
>>> reported_measurement("Cc1nn(-c2ccccc2)c2c1C(c1cn(-c3ccccc3)nc1-c1ccc(Cl)cc1)C1=C(NC(C)(c3cc(Cl)cc(I)c3O)NC1=O)O2 (centres undefined)")
"4.2 mm"
>>> reported_measurement("Cc1nn(-c2ccccc2)c2c1C(c1cn(-c3ccccc3)nc1-c1ccc(Cl)cc1)C1=C(NC(C)(c3ccc(O)c(Cl)c3O)NC1=O)O2 (centres undefined)")
"3.8 mm"

Entry Cc1nn(-c2ccccc2)c2c1C(c1cn(-c3ccccc3)nc1-c1ccc(Cl)cc1)C1=C(NC(C)(c3cc(Cl)ccc3O)NC1=O)O2 (centres undefined) — recorded zone of inhibition at 100 µg/mL = 1.5 mm

Reference for the values: ChEMBL document CHEMBL3045649
